assay details: Liver microsomal stability (rat)
Format: in vitro ADME
condition details: rat liver microsomes
property measured: Intrinsic clearance rate in vivo Clint In Vitro

{"compound": "CS(=O)(=O)N1CC=C(c2cnc(NCc3c(F)ccc4c3CCO4)n3cnnc23)CC1", "value": "35.2 mL/min/gprot"}
{"compound": "CN(C)CC(=O)N1CC=C(c2cnc(NCc3c(F)ccc4c3CCO4)n3cnnc23)CC1 [E-Y54]", "value": "22.3 mL/min/gprot"}
{"compound": "O=C(CN1CCOCC1)N1CC=C(c2cnc(NCc3c(F)ccc4c3CCO4)n3cnnc23)CC1", "value": "133 mL/min/gprot"}
{"compound": "CN(C)CC(=O)N1CC=C(c2cnc(NCc3c(F)ccc4c3CCO4)n3cnnc23)CC1 [E-Y54-H]", "value": "9.47 mL/min/gprot"}
